test: Cmax in bacterial pathogen-infected neutropenic Swiss ICR mouse thigh infection model at 2.5 mg/kg, ip; type: ADME, organism-based; parameters: dose 2.5 mg/kg, route intraperitoneal; details: in vivo
Assay metric: Cmax
Just the number plus its unit, please.

[in] Data request, read-out Cmax, for CN[C@H]1C(=O)N[C@@H]2Cc3ccc(cc3)Oc3cc4cc(c3O[C@@H]3O[C@H](C(=O)O)[C@@H](O)[C@H](O)[C@H]3NC(=O)CCCCCCCCC(C)C)Oc3ccc(cc3Cl)[C@@H](O)[C@@H]3NC(=O)[C@H](NC(=O)[C@@H]4NC(=O)[C@@H](NC2=O)c2cc(cc(O)c2Cl)Oc2cc1ccc2O)c1ccc(O)c(c1)-c1c(O[C@H]2O[C@H](CO)[C@@H](O)[C@H](O)[C@@H]2O)cc(O)cc1[C@@H](C(=O)NCCCN(C)C)NC3=O [DALBAVANCIN]
[out] 7400 ng/mL
